Experiment: ip Lewis Lung tumor assay
Assay type: in vivo
Conditions: in vivo; q4D×4 regimen
recorded.metric: MTD (mg/kg)

[[record]]
smiles_structure = "c1ccc(P(CCP(c2ccccc2)c2ccccc2)c2ccccc2)cc1"
unit_of_measurement = "mg/kg"
reported_measurement = 12


----------
Test: in vivo
Settings: mouse, ip
MTD listing for selected compounds.
recorded.metric: MTD (mg/kg)

[[record]]
smiles_structure = "c1ccc(P(CCP(c2ccccc2)c2ccccc2)c2ccccc2)cc1"
unit_of_measurement = "mg/kg"
reported_measurement = 16

[[record]]
smiles_structure = "c1ccc(P(c2ccccc2)c2ccccc2P(c2ccccc2)c2ccccc2)cc1"
unit_of_measurement = "mg/kg"
reported_measurement = 32

[[record]]
smiles_structure = "c1ccc(P(CCCCP(c2ccccc2)c2ccccc2)c2ccccc2)cc1"
unit_of_measurement = "mg/kg"
reported_measurement = 28


----------
Assay: sc mammary adenocarcinoma 16/c assay
Details: mouse, in vivo, ip
recorded.metric: MTD (mg/kg)

[[record]]
smiles_structure = "c1ccc(P(CCP(c2ccccc2)c2ccccc2)c2ccccc2)cc1"
reported_measurement = 30


----------
Assay: ip Madison 109 lung carcinoma tumor assay
Settings: in vivo
recorded.metric: MTD (mg/kg)

[[record]]
smiles_structure = "c1ccc(P(CCP(c2ccccc2)c2ccccc2)c2ccccc2)cc1"
reported_measurement = 16


----------
Test: in vivo
Conditions: mouse, ip
Collected log10 MTD values appear next to each entry.
recorded.metric: log10 MTD (log10 of the value in mg/kg)

[[record]]
molecule = "C(=C/P(c1ccccc1)c1ccccc1)/P(c1ccccc1)c1ccccc1 [Compound 34, cis-bis(1,2-diphenylphosphino)ethylene]"
reported_measurement = 1.38

[[record]]
molecule = "CC(CP(c1ccccc1)c1ccccc1)P(c1ccccc1)c1ccccc1 (centres unmarked)"
reported_measurement = 1.51

[[record]]
molecule = "C[C@H](CP(c1ccccc1)c1ccccc1)P(c1ccccc1)c1ccccc1 [Compound 36, R-(+)-bis(1,2-diphenylphosphino)propane]"
reported_measurement = 1.51

[[record]]
molecule = "C1CCC(P(CCP(C2CCCCC2)C2CCCCC2)C2CCCCC2)CC1"
reported_measurement = 1.51

[[record]]
molecule = "c1ccc(P(CCCP(c2ccccc2)c2ccccc2)c2ccccc2)cc1"
reported_measurement = 1.51

[[record]]
molecule = "Fc1cccc(P(CCP(c2cccc(F)c2)c2cccc(F)c2)c2cccc(F)c2)c1"
reported_measurement = 1.51

[[record]]
molecule = "c1ccc(P(CCCCCP(c2ccccc2)c2ccccc2)c2ccccc2)cc1"
reported_measurement = 0.90

[[record]]
molecule = "CCP(CC)CCP(CC)CC"
reported_measurement = 1.81

[[record]]
molecule = "CC(C(C)P(c1ccccc1)c1ccccc1)P(c1ccccc1)c1ccccc1 (single isomer, unassigned; (-))"
reported_measurement = 1.68

[[record]]
molecule = "CSc1ccccc1P(CCP(c1ccccc1SC)c1ccccc1SC)c1ccccc1SC"
reported_measurement = 1.81

[[record]]
molecule = "CSc1ccc(P(CCP(c2ccc(SC)cc2)c2ccc(SC)cc2)c2ccc(SC)cc2)cc1"
reported_measurement = 1.51

[[record]]
molecule = "C(=C\\P(c1ccccc1)c1ccccc1)/P(c1ccccc1)c1ccccc1 [Compound 41, Trans-bis(1,2-diphenylphosphino)ethylene]"
reported_measurement = 2.11

[[record]]
molecule = "[2H]c1c([2H])c([2H])c(P(CCP(c2c([2H])c([2H])c([2H])c([2H])c2[2H])c2c([2H])c([2H])c([2H])c([2H])c2[2H])c2c([2H])c([2H])c([2H])c([2H])c2[2H])c([2H])c1[2H]"
reported_measurement = 1.38

[[record]]
molecule = "Fc1ccc(P(CCP(c2ccc(F)cc2)c2ccc(F)cc2)c2ccc(F)cc2)cc1"
reported_measurement = 0.90


----------
Experiment: ADJ-PC6 plasmacytoma assay
Conditions: mouse, in vivo, ip
recorded.metric: MTD (mg/kg)

[[record]]
smiles_structure = "c1ccc(P(CCP(c2ccccc2)c2ccccc2)c2ccccc2)cc1"
reported_measurement = 4


----------
Recorded IC50, one value per entry.
Tested on: B16 melanoma cells (highly metastatic subline, F10)
Assay: B16 melanoma in vitro cloning (colony forming) assay, 2 hour exposure
Format: cell-based
Details: Table A, Formula (I), read-out: IC50: concentration which inhibits cloning efficiency of B16 melanoma cells by 50%
recorded.metric: IC50 (µM)

[[record]]
compound = "[Cl][Au][PH](CCC[PH]([Au][Cl])(c1ccccc1)c1ccccc1)(c1ccccc1)c1ccccc1 [Compound 3]"
recorded_metric = "IC50"
unit_of_measurement = "µM"
reported_measurement = 2

[[record]]
compound = "[Cl][Au-][P+](CCCCC[P+]([Au-][Cl])(c1ccccc1)c1ccccc1)(c1ccccc1)c1ccccc1 [Compound 5]"
recorded_metric = "IC50"
unit_of_measurement = "µM"
reported_measurement = 2

[[record]]
compound = "[Cl][Au][PH](CC[PH]([Au][Cl])(C1CCCCC1)C1CCCCC1)(C1CCCCC1)C1CCCCC1 [Compound 22]"
recorded_metric = "IC50"
unit_of_measurement = "µM"
reported_measurement = 14

[[record]]
compound = "[Cl][Au][PH](CC[PH]([Au][Cl])(c1ccccc1)c1ccccc1)(c1ccccc1)c1ccccc1 [Compound 2]"
recorded_metric = "IC50"
unit_of_measurement = "µM"
reported_measurement = 8

[[record]]
compound = "[Cl][Au-][P+](CCCCCC[P+]([Au-][Cl])(c1ccccc1)c1ccccc1)(c1ccccc1)c1ccccc1 [Compound 6]"
recorded_metric = "IC50"
unit_of_measurement = "µM"
reported_measurement = 2

[[record]]
compound = "[Cl][Au][PH](C[PH]([Au][Cl])(c1ccccc1)c1ccccc1)(c1ccccc1)c1ccccc1 [Compound 1]"
recorded_metric = "IC50"
unit_of_measurement = "µM"
reported_measurement = 6

[[record]]
compound = "[Cl][Au][PH](CCCC[PH]([Au][Cl])(c1ccccc1)c1ccccc1)(c1ccccc1)c1ccccc1 [Compound 4]"
recorded_metric = "IC50"
unit_of_measurement = "µM"
reported_measurement = 3

[[record]]
compound = "[Cl][Au][PH](C=C[PH]([Au][Cl])(c1ccccc1)c1ccccc1)(c1ccccc1)c1ccccc1 [Compound 7]"
recorded_metric = "IC50"
unit_of_measurement = "µM"
reported_measurement = 7

[[record]]
compound = "[Cl][Au]([Cl])([Cl])[PH](CC[PH](c1ccccc1)(c1ccccc1)[Au]([Cl])([Cl])[Cl])(c1ccccc1)c1ccccc1 [Compound 12]"
recorded_metric = "IC50"
unit_of_measurement = "µM"
reported_measurement = 4


----------
Below, each entry is listed with its recorded MTD (maximally tolerated dose).
Tested on: M5076 reticulum cell sarcoma
Assay: ip M5076 reticulum cell sarcoma assay in mice
Conditions: Table C; B6D2F1 female mice, ip qD × 10
recorded.metric: MTD (maximally tolerated dose) (mg/kg)

[[record]]
molecule = "[Cl][Au][PH](CC[PH](Cc1ccccc1)(Cc1ccccc1)[Au][Cl])(Cc1ccccc1)Cc1ccccc1"
reported_measurement = 4

[[record]]
molecule = "[Cl][Au]([Cl])([Cl])[PH](CC[PH](c1ccccc1)(c1ccccc1)[Au]([Cl])([Cl])[Cl])(c1ccccc1)c1ccccc1"
reported_measurement = 8

[[record]]
molecule = "[Cl][Au][PH](C=C[PH]([Au][Cl])(c1ccccc1)c1ccccc1)(c1ccccc1)c1ccccc1"
reported_measurement = 3

[[record]]
molecule = "[Cl][Au][PH](CCC[PH]([Au][Cl])(c1ccccc1)c1ccccc1)(c1ccccc1)c1ccccc1"
reported_measurement = 5

[[record]]
molecule = "[Cl][Au][PH](CC[PH]([Au][Cl])(C1CCCCC1)C1CCCCC1)(C1CCCCC1)C1CCCCC1"
reported_measurement = 8

[[record]]
molecule = "[Cl][Au][PH](CC[PH]([Au][Cl])(c1ccccc1)c1ccccc1)(c1ccccc1)c1ccccc1"
reported_measurement = 4

[[record]]
molecule = "CC(=O)[O][Au][PH](CC[PH]([Au][O]C(C)=O)(c1ccccc1)c1ccccc1)(c1ccccc1)c1ccccc1"
reported_measurement = 4

[[record]]
molecule = "N#C[S][Au][PH](CC[PH]([Au][S]C#N)(c1ccccc1)c1ccccc1)(c1ccccc1)c1ccccc1"
reported_measurement = 5

[[record]]
molecule = "CC(C[PH]([Au][Cl])(c1ccccc1)c1ccccc1)[PH]([Au][Cl])(c1ccccc1)c1ccccc1 (stereo not drawn)"
reported_measurement = 5


----------
# key: entry, value: MTD (maximally tolerated dose)
Test system: P388 leukemia
Conditions: Table B; B6D2F1 female mice, ip qD × 5
recorded.metric: MTD (maximally tolerated dose) (mg/kg)

[[record]]
compound = "Fc1ccc([PH](CC[PH]([Au][Cl])(c2ccc(F)cc2)c2ccc(F)cc2)([Au][Cl])c2ccc(F)cc2)cc1"
unit_of_measurement = "mg/kg"
reported_measurement = 8

[[record]]
compound = "[Cl][Au-][P+](CCCCC[P+]([Au-][Cl])(c1ccccc1)c1ccccc1)(c1ccccc1)c1ccccc1"
unit_of_measurement = "mg/kg"
reported_measurement = 4

[[record]]
compound = "[Cl][Au][PH](C[PH]([Au][Cl])(c1ccccc1)c1ccccc1)(c1ccccc1)c1ccccc1"
unit_of_measurement = "mg/kg"
reported_measurement = 50

[[record]]
compound = "CCOC(=O)C(N)C[S][Au][PH](CC[PH]([Au][S]CC(N)C(=O)OCC)(c1ccccc1)c1ccccc1)(c1ccccc1)c1ccccc1 (stereo not shown)"
unit_of_measurement = "mg/kg"
reported_measurement = 6

[[record]]
compound = "COc1ccc([PH](CC[PH]([Au][Cl])(c2ccc(OC)cc2)c2ccc(OC)cc2)([Au][Cl])c2ccc(OC)cc2)cc1"
unit_of_measurement = "mg/kg"
reported_measurement = 8

[[record]]
compound = "N#C[S][Au][PH](CC[PH]([Au][S]C#N)(c1ccccc1)c1ccccc1)(c1ccccc1)c1ccccc1"
unit_of_measurement = "mg/kg"
reported_measurement = 6

[[record]]
compound = "[2H]c1c([2H])c([2H])c([PH](CC[PH]([Au][Cl])(c2c([2H])c([2H])c([2H])c([2H])c2[2H])c2c([2H])c([2H])c([2H])c([2H])c2[2H])([Au][Cl])c2c([2H])c([2H])c([2H])c([2H])c2[2H])c([2H])c1[2H]"
unit_of_measurement = "mg/kg"
reported_measurement = 6

[[record]]
compound = "CSc1ccc([PH](CC[PH]([Au][Cl])(c2ccc(SC)cc2)c2ccc(SC)cc2)([Au][Cl])c2ccc(SC)cc2)cc1"
unit_of_measurement = "mg/kg"
reported_measurement = 8

[[record]]
compound = "Fc1c(F)c(F)c([PH](CC[PH]([Au][Cl])(c2c(F)c(F)c(F)c(F)c2F)c2c(F)c(F)c(F)c(F)c2F)([Au][Cl])c2c(F)c(F)c(F)c(F)c2F)c(F)c1F"
unit_of_measurement = "mg/kg"
reported_measurement = 16

[[record]]
compound = "FC(F)(F)c1ccc([PH](CC[PH]([Au][Cl])(c2ccc(C(F)(F)F)cc2)c2ccc(C(F)(F)F)cc2)([Au][Cl])c2ccc(C(F)(F)F)cc2)cc1"
unit_of_measurement = "mg/kg"
reported_measurement = 8

[[record]]
compound = "[Cl][Au][PH](CC[PH](Cc1ccccc1)(Cc1ccccc1)[Au][Cl])(Cc1ccccc1)Cc1ccccc1"
unit_of_measurement = "mg/kg"
reported_measurement = 4

[[record]]
compound = "[Cl][Cu][PH](CC[PH]([Cu][Cl])(c1ccccc1)c1ccccc1)(c1ccccc1)c1ccccc1"
unit_of_measurement = "mg/kg"
reported_measurement = 4

[[record]]
compound = "[Cl][Au][PH](CCC[PH]([Au][Cl])(c1ccccc1)c1ccccc1)(c1ccccc1)c1ccccc1"
unit_of_measurement = "mg/kg"
reported_measurement = 8

[[record]]
compound = "CCOC(=S)[S][Au][PH](CC(O)[PH]([Au][S]C(=S)OCC)(c1ccccc1)c1ccccc1)(c1ccccc1)c1ccccc1 (stereo not shown)"
unit_of_measurement = "mg/kg"
reported_measurement = 6

[[record]]
compound = "CC(C[PH]([Au][Cl])(c1ccccc1)c1ccccc1)[PH]([Au][Cl])(c1ccccc1)c1ccccc1 (stereo not shown)"
unit_of_measurement = "mg/kg"
reported_measurement = 6

[[record]]
compound = "CC(=O)[O][Au][PH](CC[PH]([Au][O]C(C)=O)(c1ccccc1)c1ccccc1)(c1ccccc1)c1ccccc1"
unit_of_measurement = "mg/kg"
reported_measurement = 4

[[record]]
compound = "[Cl][Au][PH](CC[PH]([Au][Cl])(c1ccccc1)c1ccccc1)(c1ccccc1)c1ccccc1"
unit_of_measurement = "mg/kg"
reported_measurement = 6

[[record]]
compound = "C[C@H](C[PH]([Au][Cl])(c1ccccc1)c1ccccc1)[PH]([Au][Cl])(c1ccccc1)c1ccccc1"
unit_of_measurement = "mg/kg"
reported_measurement = 6

[[record]]
compound = "Fc1cccc([PH](CC[PH]([Au][Cl])(c2cccc(F)c2)c2cccc(F)c2)([Au][Cl])c2cccc(F)c2)c1"
unit_of_measurement = "mg/kg"
reported_measurement = 8

[[record]]
compound = "[Cl][Au][PH](C=C[PH]([Au][Cl])(c1ccccc1)c1ccccc1)(c1ccccc1)c1ccccc1 [Compound 7]"
unit_of_measurement = "mg/kg"
reported_measurement = 4

[[record]]
compound = "O=[N+]([O-])[O][Ag][PH](CC[PH]([Ag][O][N+](=O)[O-])(c1ccccc1)c1ccccc1)(c1ccccc1)c1ccccc1"
unit_of_measurement = "mg/kg"
reported_measurement = 6

[[record]]
compound = "[Cl][Au]([Cl])([Cl])[PH](CC[PH](c1ccccc1)(c1ccccc1)[Au]([Cl])([Cl])[Cl])(c1ccccc1)c1ccccc1"
unit_of_measurement = "mg/kg"
reported_measurement = 16

[[record]]
compound = "CC[PH](CC)(CC[PH]([Au][Cl])(c1ccccc1)c1ccccc1)[Au][Cl]"
unit_of_measurement = "mg/kg"
reported_measurement = 16

[[record]]
compound = "[Cl][Au][PH](CC[PH]([Au][Cl])(C1CCCCC1)C1CCCCC1)(C1CCCCC1)C1CCCCC1"
unit_of_measurement = "mg/kg"
reported_measurement = 16

[[record]]
compound = "[Cl][Au][PH](C=C[PH]([Au][Cl])(c1ccccc1)c1ccccc1)(c1ccccc1)c1ccccc1 [Compound 8]"
unit_of_measurement = "mg/kg"
reported_measurement = 24

